Task for the reader: assign each of the following molecules its reported viability, T/C.
Test system: 885724-159-R-J1-PDC complex spheroid viability;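 further: spheroids exposed to compounds for 7 days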
Assay: Anticancer human tumor 885724-159-R-J1-PDC patient-derived pancreatic adenocarcinoma cell line growth inhibition [POLQ]
Conditions: second compound 0.0316 µM; first compound 1 µM; active compounds read low

// query Could you tell me which viability, T/C is on file for CC(C)n1c(=O)n(C)c2cnc3cc(F)c(-c4ccc(OCCCN5CCCCC5)nc4)cc3c21 + COC1C(OC(N)=O)C(O)C(Oc2ccc3c(O)c(NC(=O)c4ccc(O)c(CC=C(C)C)c4)c(=O)oc3c2C)OC1(C)C ?
// result 88.9%

// query CCc1cc2c(N3CCc4c(cc(Cn5ccnc5)cc4-c4cn(C)nc4C(F)(F)F)C3=O)cc(C)nc2c(OC)n1 + COC1C(OC(N)=O)C(O)C(Oc2ccc3c(O)c(NC(=O)c4ccc(O)c(CC=C(C)C)c4)c(=O)oc3c2C)OC1(C)C , same question.
// result 68.9%

// query Repeat for the following molecule: CC1COCCN1c1cc(C2(S(C)(=N)=O)CC2)nc(-c2ccnc3[nH]ccc23)n1 (stereo not drawn) + Nc1ccc(C#CCN(C(=O)Cc2ncc(C(F)(F)F)cc2C(F)(F)F)c2ccc(F)cc2)nn1
// result 75.9%
